- Tested system: Ku70/80 (Homo sapiens, UniProt P12956+P13010)
- Sequence (P12956 whole entry): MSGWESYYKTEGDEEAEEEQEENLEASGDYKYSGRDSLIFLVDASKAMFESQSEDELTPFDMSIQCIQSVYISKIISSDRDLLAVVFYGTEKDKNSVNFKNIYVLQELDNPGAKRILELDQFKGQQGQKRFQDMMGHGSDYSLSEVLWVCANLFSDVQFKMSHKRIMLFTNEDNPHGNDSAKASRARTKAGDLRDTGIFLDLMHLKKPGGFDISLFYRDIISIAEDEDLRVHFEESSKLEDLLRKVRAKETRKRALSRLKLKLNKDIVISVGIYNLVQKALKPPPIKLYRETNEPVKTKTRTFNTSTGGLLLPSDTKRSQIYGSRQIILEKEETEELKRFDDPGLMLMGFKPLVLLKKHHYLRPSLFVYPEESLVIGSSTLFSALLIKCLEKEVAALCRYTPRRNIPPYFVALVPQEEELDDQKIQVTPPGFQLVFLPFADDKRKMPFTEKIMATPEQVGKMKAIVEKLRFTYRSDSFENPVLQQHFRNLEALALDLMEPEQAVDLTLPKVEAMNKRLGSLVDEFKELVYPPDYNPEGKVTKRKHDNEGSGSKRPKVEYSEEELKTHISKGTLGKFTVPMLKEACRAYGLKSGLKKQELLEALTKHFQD
- Sequence (P13010 whole entry): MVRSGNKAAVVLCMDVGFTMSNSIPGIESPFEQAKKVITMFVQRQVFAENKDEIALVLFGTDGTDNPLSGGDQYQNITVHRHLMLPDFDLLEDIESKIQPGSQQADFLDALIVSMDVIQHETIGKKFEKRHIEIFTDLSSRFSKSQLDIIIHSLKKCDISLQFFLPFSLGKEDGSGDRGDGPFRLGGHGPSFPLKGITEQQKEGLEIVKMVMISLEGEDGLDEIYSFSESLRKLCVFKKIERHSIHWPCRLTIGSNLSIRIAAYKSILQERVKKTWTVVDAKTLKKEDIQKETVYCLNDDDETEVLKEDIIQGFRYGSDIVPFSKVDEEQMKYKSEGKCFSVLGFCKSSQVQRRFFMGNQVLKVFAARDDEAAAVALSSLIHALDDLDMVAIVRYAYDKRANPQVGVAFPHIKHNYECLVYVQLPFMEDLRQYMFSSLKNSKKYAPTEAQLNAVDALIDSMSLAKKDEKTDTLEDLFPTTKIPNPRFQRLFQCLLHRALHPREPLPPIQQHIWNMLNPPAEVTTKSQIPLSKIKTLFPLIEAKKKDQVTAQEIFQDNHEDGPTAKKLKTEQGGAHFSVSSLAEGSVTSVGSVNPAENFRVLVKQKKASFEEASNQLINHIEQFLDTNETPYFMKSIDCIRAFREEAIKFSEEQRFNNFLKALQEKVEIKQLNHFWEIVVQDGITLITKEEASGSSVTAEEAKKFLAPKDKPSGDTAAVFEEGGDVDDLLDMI
- Protocol details: Ku–DNA binding EMSA
- Settings: Ku70/80 (IC50), purified Ku70/80, direct DNA binding activity by EMSA
pIC50: −log10 of the molar value.
Reported property: pIC50

Molecule	pIC50
CC1=NN(c2cccc(C(=O)O)c2)C(=O)C1Cc1ccc(-c2ccc(Cl)c(C(=O)NCc3ccc(F)cc3)c2)s1 (centres unmarked) [Compound 60]	5.39
CC1=NN(c2ccc(C(=O)O)cc2)C(=O)/C1=C\c1ccc(-c2ccc(Cl)c(C(=O)NCc3ccccc3)c2)o1 [Compound 48]	4.65
CC1=NN(c2cccc(C(=O)O)c2)C(=O)/C1=C\c1ccc(-c2ccc(Cl)c(C(=O)NCc3ccccc3)c2)o1 [Compound 37]	5.09
COc1cccc(NC(=O)c2cc(-c3ccc(CC4C(=O)N(c5ccc(S(N)(=O)=O)cc5)N=C4C)o3)ccc2Cl)c1 (centres unmarked) [Compound 70]	5.10

(A) COc1cccc(NC(=O)c2cc(-c3ccc(/C=C4\C(=O)N(c5ccc(C(=O)O)cc5)N=C4C)s3)ccc2Cl)c1 [Compound 41]
(B) COc1cccc(NC(=O)c2cc(-c3ccc(/C=C4\C(=O)N(c5cccc(C(=O)O)c5)N=C4C(F)(F)F)o3)ccc2Cl)c1 [Compound 50]
Problem: Of A versus B , which is the one with smaller reported pIC50? Your answer should be the label of the entry you select.
Solution: A
(A: 5.04, B: 5.47)

====

- Tested system: DNA-PK (Homo sapiens, UniProt P12956+P13010)
- Sequence (P12956 whole entry): as the sequence (P12956 whole entry) above
- Sequence (P13010 whole entry): as the sequence (P13010 whole entry) above
- Protocol details: DNA-PK phosphoryl-transferase catalytic
- Format: biochemical
pIC50: −log10 of the molar value.
Reported property: pIC50

(P) COc1ccc(NC(=O)c2cc(-c3ccc(CC4C(=O)N(c5cccc(C(=O)O)c5)N=C4C)o3)ccc2Cl)cc1OC (centres unmarked)
(Q) CC1=NN(c2cccc(C(=O)O)c2)C(=O)/C1=C\c1ccc(-c2ccc(Cl)c(C(=O)Nc3cccc(OC(F)(F)F)c3)c2)[nH]1
(R) CC1=NN(c2ccc(C(=O)O)cc2)C(=O)/C1=C\c1ccc(-c2ccc(Cl)c(C(=O)NCc3cccnc3)c2)o1
(S) O=C(O)c1cccc(N2N=C(C(F)(F)F)/C(=C/c3ccc(-c4ccc(Cl)c(C(=O)NCc5ccc(F)cc5)c4)o3)C2=O)c1
Problem: Arrange the 4 compounds from largest to smallest pIC50. // format: requested-order list of labels
Solution: S, Q, P, R

(I) CC1=NN(c2ccc(C(=O)O)cc2)C(=O)/C1=C\c1ccc(-c2ccc(Cl)c(C(=O)NCc3ccccc3)c2)o1
(II) CC1=NN(c2ccc(S(N)(=O)=O)cc2)C(=O)/C1=C\c1ccc(-c2ccc(Cl)c(C(=O)NCc3ccc(F)cc3)c2)o1
(III) COc1cccc(NC(=O)c2cc(-c3ccc(CC4C(=O)N(c5ccc(C(=O)O)cc5)N=C4C)o3)ccc2Cl)c1 (centres unmarked)
Problem: Put the entries in order of pIC50, starting with the largest number. # list labels per requested ordering
Solution: I, III, II
(I: 6.32, III: 6.09, II: 5.82)

====

- Tested system: DNA-PK (Homo sapiens, UniProt P12956+P13010)
- Protocol details: DNA-PK phosphoryl-transferase catalytic
pIC50: −log10 of the molar value.
Reported property: pIC50

Molecule	Measured
CC1=NN(c2cccc(C(=O)O)c2)C(=O)/C1=C\c1ccc(-c2ccc(Cl)c(C(=O)NCc3ccc(F)cc3)c2)s1	5.49
COc1cccc(NC(=O)c2cc(-c3ccc(/C=C4\C(=O)N(c5cccc(C(=O)O)c5)N=C4C)s3)ccc2Cl)c1	5.76
CC1=NN(c2cccc(C(=O)O)c2)C(=O)C1Cc1ccc(-c2ccc(Cl)c(C(=O)NCc3ccc(F)cc3)c2)s1 (stereo not shown)	5.58
COc1cccc(NC(=O)c2cc(-c3ccc(/C=C4\C(=O)N(c5cccc(C(=O)O)c5)N=C4C)[nH]3)ccc2Cl)c1	5.80

(a) COc1cccc(NC(=O)c2cc(-c3ccc(/C=C4\C(=O)N(c5ccc(S(N)(=O)=O)cc5)N=C4C)o3)ccc2Cl)c1
(b) CC1=NN(c2cccc(C(=O)O)c2)C(=O)/C1=C\c1ccc(-c2ccc(Cl)c(C(=O)NCC3CC3)c2)s1
(c) COc1cccc(NC(=O)c2cc(-c3ccc(/C=C4\C(=O)N(c5ccc(C(=O)O)cc5)N=C4C)s3)ccc2Cl)c1
Problem: // smallest pIC50 at index 0, largest at the end Record the ranking as a list of labels in the requested order.
Solution: b, a, c
(b: 5.52, a: 5.85, c: 6.28)

====

- Tested system: Ku70/80 (Homo sapiens, UniProt P12956+P13010)
- Protocol details: Ku–DNA binding EMSA
- Settings: Ku70/80 (IC50), purified Ku70/80, direct DNA binding activity by EMSA
Reported property: IC50 (µM)

Molecule	Reported property	Measured
COc1cccc(CNC(=O)c2cc(-c3ccc(CC4C(=O)N(c5ccc(C(=O)O)cc5)N=C4C)o3)ccc2Cl)c1 (stereo not shown) [Compound 56]	IC50	12.4
COc1cccc(NC(=O)c2cc(-c3ccc(CC4C(=O)N(c5ccc(C(=O)O)cc5)N=C4C)o3)ccc2Cl)c1 (stereo not shown) [Compound 55]	IC50	7.67
COc1cccc(NC(=O)c2cc(-c3ccc(/C=C4\C(=O)N(c5cccc(C(=O)O)c5)N=C4C)s3)ccc2Cl)c1 [Compound 40]	IC50	7.18
CC1=NN(c2cccc(C(=O)O)c2)C(=O)/C1=C\c1ccc(-c2ccc(Cl)c(C(=O)Nc3cccc(OC(F)(F)F)c3)c2)[nH]1 [Compound 45]	IC50	6.9
CC1=NN(c2cccc(C(=O)O)c2)C(=O)/C1=C\c1ccc(-c2ccc(Cl)c(C(=O)NCc3ccc(F)cc3)c2)s1 [Compound 43]	IC50	10.1
O=C(O)c1cccc(N2N=C(C(F)(F)F)/C(=C/c3ccc(-c4ccc(Cl)c(C(=O)NCc5ccc(F)cc5)c4)o3)C2=O)c1 [Compound 52]	IC50	9.15

====

- Tested system: DNA-PK (Homo sapiens, UniProt P12956+P13010)
- Protocol details: DNA-PK phosphoryl-transferase catalytic
Reported property: IC50 (nM)

Compound	Tested system	Unit spec	IC50
COc1cccc(CNC(=O)c2cc(-c3ccc(CC4C(=O)N(c5ccc(C(=O)O)cc5)N=C4C)o3)ccc2Cl)c1 (stereo not shown)	DNA-PK (Homo sapiens, UniProt P12956+P13010)	nM	490
COc1cccc(NC(=O)c2cc(-c3ccc(CC4C(=O)N(c5cccc(C(=O)O)c5)N=C4C)s3)ccc2Cl)c1 (stereo not shown)	DNA-PK (Homo sapiens, UniProt P12956+P13010)	nM	400

(1) CC1=NN(c2cccc(C(=O)O)c2)C(=O)/C1=C\c1ccc(-c2ccc(Cl)c(C(=O)NCc3ccccc3)c2)o1
(2) COc1cccc(CNC(=O)c2cc(-c3ccc(/C=C4\C(=O)N(c5ccc(C(=O)O)cc5)N=C4C)o3)ccc2Cl)c1
Problem: Parameter check: reported IC50 is higher for which label, 1 or 2 ? State the label of the item chosen.
Solution: 1

Origin of values: paper PMC12452633
